# EXPERIMENTAL TARGET: plasmin (Homo sapiens (Human), UniProt P00747)
# Sequence (P00747 581-810 limits assumed): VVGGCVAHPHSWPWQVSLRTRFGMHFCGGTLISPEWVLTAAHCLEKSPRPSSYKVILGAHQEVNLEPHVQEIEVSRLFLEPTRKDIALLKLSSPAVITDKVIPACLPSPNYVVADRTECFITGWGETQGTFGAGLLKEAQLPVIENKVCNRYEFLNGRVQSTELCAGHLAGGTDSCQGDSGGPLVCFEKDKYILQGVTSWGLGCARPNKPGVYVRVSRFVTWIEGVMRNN
# Sequence (P00747 97-580 partner limits assumed): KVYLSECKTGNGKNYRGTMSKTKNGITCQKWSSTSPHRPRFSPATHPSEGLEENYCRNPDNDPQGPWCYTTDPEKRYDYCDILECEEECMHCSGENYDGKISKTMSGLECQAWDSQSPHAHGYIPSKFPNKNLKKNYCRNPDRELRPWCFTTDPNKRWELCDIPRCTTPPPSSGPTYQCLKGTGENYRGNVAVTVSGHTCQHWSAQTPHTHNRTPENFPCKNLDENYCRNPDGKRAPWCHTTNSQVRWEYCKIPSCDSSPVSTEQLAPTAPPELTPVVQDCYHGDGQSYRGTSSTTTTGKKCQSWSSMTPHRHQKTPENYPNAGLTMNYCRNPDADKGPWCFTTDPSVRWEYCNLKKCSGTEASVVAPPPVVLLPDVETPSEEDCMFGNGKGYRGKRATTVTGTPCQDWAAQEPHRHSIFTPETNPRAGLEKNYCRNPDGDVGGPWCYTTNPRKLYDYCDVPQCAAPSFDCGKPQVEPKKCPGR
QUANTITY KIND: Ki (µM)
# number only, unit µM dropped from output

Enter Ki (test system plasmin (Homo sapiens (Human), UniProt P00747)) for CC(C)(C)c1ccc(O)c(C(=O)Nc2ccc(CN)cc2)c1.Cl [Compound 1, hydrochloride, reference compound]
14.4

* * *

Reported inhibition at 10 µM by item:
# EXPERIMENTAL TARGET: plasmin (Homo sapiens (Human))
# ASSAY REMARKS: Plasmin enzymatic inhibition test (Boc-QAR-AMC / PAR4 FRET substrate)
# CONDITION DESCRIPTION: read-out: % Inhibition at 10 μM
Where a name gives a salt, the structure may show the parent alone.
# number only, unit % dropped from output

MOLECULE	inhibition at 10 µM [%]
NCc1ccc(NC(=O)c2cc3ccccc3cc2O)cc1 [Compound 3, hydrochloride]	81
Cc1ccc(C(=O)Nc2ccc(CN)cc2)c(O)c1.Cl [Compound 4, hydrochloride]	54.3
CC(C)c1ccc(C(=O)Nc2ccc(CN)cc2)c(O)c1 [Compound 6, hydrochloride]	70.2
Cl.NCc1ccc(NC(=O)c2ccc3ccccc3c2O)cc1 [Compound 2, hydrochloride]	97.4
CC(C)(C)c1ccc(O)c(C(=O)Nc2ccc(CN)cc2)c1.Cl [Compound 1, hydrochloride, reference compound]	39.3

For the next question, use this molecule.
Kindly indicate its recorded inhibition at 10 µM. Item: COc1ccc2c(O)c(C(=O)Nc3ccc(CN)cc3)ccc2c1 [Compound 5, hydrochloride]
100

* * *

# EXPERIMENTAL TARGET: KLK6 (Homo sapiens (Human))
# ASSAY REMARKS: KLK6 enzymatic inhibition test (fluorogenic/FRET peptide substrates)
# CONDITION DESCRIPTION: KLK6, substrate Boc-QAR-AMC
QUANTITY KIND: pIC50
Value format note: pIC50 is -log10 of concentration (mol/L); just state the number.

Kindly indicate its recorded pIC50. Item: CC(C)(C)c1ccc(O)c(C(=O)Nc2ccc(CN)cc2)c1.Cl [Compound 1, hydrochloride, reference compound]
5.04

* * *

# EXPERIMENTAL TARGET: KLK1 (Homo sapiens (Human), UniProt P06870)
# Sequence (P06870 25-262): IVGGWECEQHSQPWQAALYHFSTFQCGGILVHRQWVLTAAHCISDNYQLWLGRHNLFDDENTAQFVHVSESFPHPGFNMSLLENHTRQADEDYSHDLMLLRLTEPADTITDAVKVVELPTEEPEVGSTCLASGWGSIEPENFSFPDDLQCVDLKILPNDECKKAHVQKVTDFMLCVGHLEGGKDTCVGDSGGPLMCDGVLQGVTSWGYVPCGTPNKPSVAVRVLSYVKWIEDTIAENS
# ASSAY REMARKS: KLK1 enzymatic inhibition test (Boc-PFR-AMC)
# Assay type: biochemical
# CONDITION DESCRIPTION: KLK1 1.6 nM, Boc-PFR-AMC 100 μM, 15 min at 37° C., compound 10 μM
Where a name gives a salt, the structure may show the parent alone.
Cut-off 50% on inhibition at 10 µM, inclusive. At or above means TRUE; below means FALSE.

Field: example entries. Status: answers known.
MOLECULE	DISCRETE LABEL
COc1ccc2c(O)c(C(=O)Nc3ccc(CN)cc3)ccc2c1 [Compound 5, hydrochloride]	FALSE
CC(C)(C)c1ccc(O)c(C(=O)Nc2ccc(CN)cc2)c1.Cl [Compound 1, hydrochloride, reference compound]	FALSE
Cl.NCc1ccc(NC(=O)c2ccc3ccccc3c2O)cc1 [Compound 2, hydrochloride]	FALSE
Cc1ccc(C(=O)Nc2ccc(CN)cc2)c(O)c1.Cl [Compound 4, hydrochloride]	TRUE
CC(C)c1ccc(C(=O)Nc2ccc(CN)cc2)c(O)c1 [Compound 6, hydrochloride]	TRUE

Now for another entry.
Threshold query (inhibition at 10 µM >= 50%) on NCc1ccc(NC(=O)c2cc3ccccc3cc2O)cc1 [Compound 3, hydrochloride]
TRUE
